- test name: protein stability index of a GFP-peptide fusion (GPS, HEK-293T) (PSI 1-6); higher = more stable;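 further: 24-mer peptide tiles fused after GFP, lentivirally expressed, FACS-sorted into six equal bins by GFP/DsRed ratio, decoded by Illumina sequencing, PSI is the read-weighted mean bin number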
- condition description: treatment: MLN4924 1 uM, 8 h; c terminus: a fixed tail appended
Returns YES if the recorded protein stability index is greater than or equal to 3, and NO otherwise.

>  <residue codes>
KLQDVFEMRFAKMPDEPVEAPALP [BRD3]

>  <qualitative label>
YES

$$$$
>  <residue codes>
EKDRIKSFTTNEKAILEQNFRDLV [TRIM29]

>  <qualitative label>
YES

$$$$
>  <residue codes>
QACARNILVQTPESESPQSHRAAG [TRIM9]

>  <qualitative label>
YES

$$$$
>  <residue codes>
LDQPVSAPPSPRDISMEIDSPENM [CCDC6]

>  <qualitative label>
YES

$$$$
>  <residue codes>
ICFKEMLANSWNCLPKHLLHSVNQ [KLHDC2]

>  <qualitative label>
NO

$$$$
>  <residue codes>
ASKTVFFFFSSPGNNNGTSIEDGQ [BTBD1]

>  <qualitative label>
NO

$$$$
>  <residue codes>
SVPFSFDPNTAAGWLSVSDDLTSV [TRIM35]

>  <qualitative label>
YES

$$$$
>  <residue codes>
NAAKTCPTMPALFSDHTFRHYAYL [INTS4]

>  <qualitative label>
NO

$$$$
>  <residue codes>
LQMKLEKLREKERKKEAKRKISSL [FAM50A]

>  <qualitative label>
YES

$$$$
>  <residue codes>
RVRPLARVTSLANLISPVRNGAVR [NET1]

>  <qualitative label>
YES

$$$$
>  <residue codes>
TREWTQLKPNNLSCDLPEERYRHE [KLHDC10]

>  <qualitative label>
YES

$$$$
>  <residue codes>
DSEEEVIERANNVKYGLAATVWSS [ALDH8A1]

>  <qualitative label>
YES

$$$$
>  <residue codes>
GSGAASSSGEDKENDGFVFKMPWK [CDC25B]

>  <qualitative label>
YES

$$$$
>  <residue codes>
MRHVEKMCKADLSRNFIERNHMEN [TRIM29]

>  <qualitative label>
YES

$$$$
>  <residue codes>
ATHILVRQQGNPGHRSIYLALKLP [ADAMTS4]

>  <qualitative label>
NO

$$$$
>  <residue codes>
TDNQVRLRKRKEIREDRDRARLDS [DLC1]

>  <qualitative label>
YES

$$$$
>  <residue codes>
FVHELHLSRLQRVKFCLLGALLAP [LPCAT4]

>  <qualitative label>
NO

$$$$
>  <residue codes>
NSAMPFKILYDDGKMVEEVDGRAT [PTPRD]

>  <qualitative label>
YES

$$$$
>  <residue codes>
NALKDARAKLDELEGALHQAKEEL [KRT71]

>  <qualitative label>
YES

$$$$
>  <residue codes>
CMAFELATGDYLFEPHSGEDYSRD [SRPK2]

>  <qualitative label>
YES

$$$$
>  <residue codes>
YFSQVPVLASFILDDGEIDEIRWK [IQUB]

>  <qualitative label>
NO

$$$$
>  <residue codes>
SCFLINTADRIIRVYDGREILTCG [RBBP5]

>  <qualitative label>
NO

$$$$
>  <residue codes>
KVQKPLLQAPFLPPKAPPPVIKIP [RHOBTB1]

>  <qualitative label>
YES

$$$$
>  <residue codes>
PEDEVIVNQYVIRPGPSASAASSA [RNF208]

>  <qualitative label>
YES

$$$$
>  <residue codes>
LLKHSNIVRLHDSISEEGFHYLVF [CAMK2B]

>  <qualitative label>
NO

$$$$
>  <residue codes>
NTKRAIHTLAVMNDRLYAIGGNHL [KLHL14]

>  <qualitative label>
NO

$$$$
>  <residue codes>
DETTRSDISERPSVDDIESETGST [C2CD2L]

>  <qualitative label>
YES

$$$$
>  <residue codes>
WSLYPSDSQVSEEVKTRHSEKSQR [CHGB]

>  <qualitative label>
YES

$$$$
>  <residue codes>
IPTVKPLKPRPEPPKKPSNWRRKH [ZC2HC1A]

>  <qualitative label>
YES

$$$$
>  <residue codes>
DIEDVFYKYGAIRDIDLKNRRGGP [SRSF1]

>  <qualitative label>
YES

$$$$
>  <residue codes>
PPTRGPPPSYGGSSRYDDYSSSRD [RBMX]

>  <qualitative label>
YES

$$$$
>  <residue codes>
YSIISLLLKDKVRERIQILKTSEV [PTPN9]

>  <qualitative label>
NO

$$$$
>  <residue codes>
RVLNSAKEKSSTVPIPTVNQYLYF [SOAT1]

>  <qualitative label>
NO

$$$$
>  <residue codes>
ILDTDEYVLKYMESNAAQYSPEAL [EFHC1]

>  <qualitative label>
YES

$$$$
>  <residue codes>
TGIEYIVAQGPTNQGLNVMVWNQN [ADAMTSL2]

>  <qualitative label>
NO

$$$$
>  <residue codes>
GFGILGHSQNLAKQQRNEVSFVIH [SEPHS2]

>  <qualitative label>
NO

$$$$
>  <residue codes>
KILRSMSRKVTTNKLLLSIIILLE [VTI1B]

>  <qualitative label>
NO

$$$$
>  <residue codes>
DGSVRIWELREKQQLAAEPVPTGF [WDR41]

>  <qualitative label>
YES

$$$$
>  <residue codes>
LSSRWKNWWIRGILTLTMISLFFL [CDS1]

>  <qualitative label>
NO

$$$$
>  <residue codes>
DGLKRRQQLEEELLRAKIEVEKLK [RAD54B]

>  <qualitative label>
YES

$$$$
>  <residue codes>
SPSPMSHGHYSMHCLHSAGHSQPD [DLX1]

>  <qualitative label>
YES

$$$$
>  <residue codes>
SDASSHANAAKHTQDSARVNPQDG [EHMT1]

>  <qualitative label>
YES

$$$$
